# PROCEDURE SUMMARY: TarO Biochemical Enzymatic Assay: The TarO biochemical enzymatic assay is a liquid chromatography-mass spectroscopy (LC-MS) based end point assay that measures C55-P-P-GlcNAc (LIPID III) production. The TarO biochemical enzymatic assay was performed in a 384-well microtiter plate (Labcyte) with a reaction volume of 20 μl. The reaction mix contained 0.1 μgs/μl of TarO membrane preparation derived from MRSA COL (lysostaphin/lysozyme treated, centrifuged at 40K rpm, and re-suspended in 50 mM Tris pH 7.5, 10 mM MgCl2), 1500 μM UDP-GlcNAc, x 75 μM C55-P substrates in 83 mM Tris pH 8.0, 6.7 mM MgCl2, 6 mM CHAPS, and 8.3% DMSO buffer. The enzyme reactions were quenched by extraction in 40 μl of 1-pentanol containing 0.04 μM […] C55-PP-GlcNAc, which was used as an internal standard. A 10 μl volume of the quenched reaction mixture (pH≈3) from each well was injected onto a reversed-phase column (C4, 5 m, 2.1×50 mm, Thermo Scientific Biobacis-4) and eluted using a NH4Ac/H2O/MeOH gradient (solvent A: 10 mM NH4Ac in water, pH 5.6; solvent B: NH4Ac (1 M)-Isopropanol (1:90, v/v, pH 5.6). The HPLC conditions were as follows: 15% solvent B for 15 seconds followed by a gradient to 90% solvent B in 90 seconds; then solvent B was kept at 95% for 10 seconds followed by a gradient to 8% solvent B in 0.1 minute. The column was then equilibrated at 15% B for 1 minute before the next injection. The flow rate was kept constant at 600 μl/minute. Mass spectrometric detection was carried out in the negative-ion mode using selected reaction monitoring (SRM). Typical mass spectrometric conditions were as follows: heated capillary temperature, 210° C.; spray voltage, 2500 V; desolvation gas (N2), 40 l/h; auxiliary gas (N2), 35 l/h. Selected ion current (SIC) chromatograms of C55-PP-GlcNAc and internal standard 15C C55-PP-GlcNAc were plotted and integrated using LCQuan incorporated in Xcalibur software (ThermoFinnigan). The linearity of C55-PP-GlcNAc concentration versus mass spectrometric signal (AC55-PP-GlcNAc/A15C-C55-PP-GlcNAc) was determined with purified C55-PP-GlcNAc. The IC50 values were calculated using the nonlinear regression analysis (sigmoidal dose response fit allowing for a variable slope) of percent inhibition data with minimum and maximum values set to 0 and 100 percent.
Output 1 (yes) for records whose IC50 is lower than 100 nM, 0 (no) for records at or above 100 nM.

{"COMPOUND STRUCTURE STRING": "Cc1cccnc1CCNC(=O)N1C(=O)O[C@H](c2cc(C(F)(F)F)cc(C(F)(F)F)c2)[C@@H]1C", "QUALITATIVE LABEL": "0 (no)"}
{"COMPOUND STRUCTURE STRING": "C[C@H]1[C@@H](c2cc(N(C)C)cc(C(F)(F)F)c2)OC(=O)N1C(=O)NCc1cncc2ccccc12", "QUALITATIVE LABEL": "1 (yes)"}
{"COMPOUND STRUCTURE STRING": "C[C@H]1[C@@H](c2cc(F)cc(C(F)(F)F)c2)OC(=O)N1C(=O)NCc1ccccc1Cl", "QUALITATIVE LABEL": "0 (no)"}
{"COMPOUND STRUCTURE STRING": "C[C@H]1[C@@H](c2cc(F)cc(C(F)(F)F)c2)OC(=O)N1C(=O)NCc1ccccc1S(C)(=O)=O", "QUALITATIVE LABEL": "0 (no)"}
{"COMPOUND STRUCTURE STRING": "COc1cc([C@H]2OC(=O)N(C(=O)NCc3cncc4ccccc34)[C@H]2CO)cc(C(F)(F)F)c1", "QUALITATIVE LABEL": "0 (no)"}
{"COMPOUND STRUCTURE STRING": "C[C@H]1[C@@H](c2cc(F)cc(C(F)(F)F)c2)OC(=O)N1C(=O)CCc1cncc2ccccc12", "QUALITATIVE LABEL": "1 (yes)"}
{"COMPOUND STRUCTURE STRING": "O=C(NCc1cncc2ccccc12)N1C(=O)O[C@H](c2cc(F)cc(C(F)(F)F)c2)[C@@H]1CCO", "QUALITATIVE LABEL": "0 (no)"}
